Biological target: USP9X (Homo sapiens (Human), UniProt Q93008)
Sequence (Q93008 whole entry): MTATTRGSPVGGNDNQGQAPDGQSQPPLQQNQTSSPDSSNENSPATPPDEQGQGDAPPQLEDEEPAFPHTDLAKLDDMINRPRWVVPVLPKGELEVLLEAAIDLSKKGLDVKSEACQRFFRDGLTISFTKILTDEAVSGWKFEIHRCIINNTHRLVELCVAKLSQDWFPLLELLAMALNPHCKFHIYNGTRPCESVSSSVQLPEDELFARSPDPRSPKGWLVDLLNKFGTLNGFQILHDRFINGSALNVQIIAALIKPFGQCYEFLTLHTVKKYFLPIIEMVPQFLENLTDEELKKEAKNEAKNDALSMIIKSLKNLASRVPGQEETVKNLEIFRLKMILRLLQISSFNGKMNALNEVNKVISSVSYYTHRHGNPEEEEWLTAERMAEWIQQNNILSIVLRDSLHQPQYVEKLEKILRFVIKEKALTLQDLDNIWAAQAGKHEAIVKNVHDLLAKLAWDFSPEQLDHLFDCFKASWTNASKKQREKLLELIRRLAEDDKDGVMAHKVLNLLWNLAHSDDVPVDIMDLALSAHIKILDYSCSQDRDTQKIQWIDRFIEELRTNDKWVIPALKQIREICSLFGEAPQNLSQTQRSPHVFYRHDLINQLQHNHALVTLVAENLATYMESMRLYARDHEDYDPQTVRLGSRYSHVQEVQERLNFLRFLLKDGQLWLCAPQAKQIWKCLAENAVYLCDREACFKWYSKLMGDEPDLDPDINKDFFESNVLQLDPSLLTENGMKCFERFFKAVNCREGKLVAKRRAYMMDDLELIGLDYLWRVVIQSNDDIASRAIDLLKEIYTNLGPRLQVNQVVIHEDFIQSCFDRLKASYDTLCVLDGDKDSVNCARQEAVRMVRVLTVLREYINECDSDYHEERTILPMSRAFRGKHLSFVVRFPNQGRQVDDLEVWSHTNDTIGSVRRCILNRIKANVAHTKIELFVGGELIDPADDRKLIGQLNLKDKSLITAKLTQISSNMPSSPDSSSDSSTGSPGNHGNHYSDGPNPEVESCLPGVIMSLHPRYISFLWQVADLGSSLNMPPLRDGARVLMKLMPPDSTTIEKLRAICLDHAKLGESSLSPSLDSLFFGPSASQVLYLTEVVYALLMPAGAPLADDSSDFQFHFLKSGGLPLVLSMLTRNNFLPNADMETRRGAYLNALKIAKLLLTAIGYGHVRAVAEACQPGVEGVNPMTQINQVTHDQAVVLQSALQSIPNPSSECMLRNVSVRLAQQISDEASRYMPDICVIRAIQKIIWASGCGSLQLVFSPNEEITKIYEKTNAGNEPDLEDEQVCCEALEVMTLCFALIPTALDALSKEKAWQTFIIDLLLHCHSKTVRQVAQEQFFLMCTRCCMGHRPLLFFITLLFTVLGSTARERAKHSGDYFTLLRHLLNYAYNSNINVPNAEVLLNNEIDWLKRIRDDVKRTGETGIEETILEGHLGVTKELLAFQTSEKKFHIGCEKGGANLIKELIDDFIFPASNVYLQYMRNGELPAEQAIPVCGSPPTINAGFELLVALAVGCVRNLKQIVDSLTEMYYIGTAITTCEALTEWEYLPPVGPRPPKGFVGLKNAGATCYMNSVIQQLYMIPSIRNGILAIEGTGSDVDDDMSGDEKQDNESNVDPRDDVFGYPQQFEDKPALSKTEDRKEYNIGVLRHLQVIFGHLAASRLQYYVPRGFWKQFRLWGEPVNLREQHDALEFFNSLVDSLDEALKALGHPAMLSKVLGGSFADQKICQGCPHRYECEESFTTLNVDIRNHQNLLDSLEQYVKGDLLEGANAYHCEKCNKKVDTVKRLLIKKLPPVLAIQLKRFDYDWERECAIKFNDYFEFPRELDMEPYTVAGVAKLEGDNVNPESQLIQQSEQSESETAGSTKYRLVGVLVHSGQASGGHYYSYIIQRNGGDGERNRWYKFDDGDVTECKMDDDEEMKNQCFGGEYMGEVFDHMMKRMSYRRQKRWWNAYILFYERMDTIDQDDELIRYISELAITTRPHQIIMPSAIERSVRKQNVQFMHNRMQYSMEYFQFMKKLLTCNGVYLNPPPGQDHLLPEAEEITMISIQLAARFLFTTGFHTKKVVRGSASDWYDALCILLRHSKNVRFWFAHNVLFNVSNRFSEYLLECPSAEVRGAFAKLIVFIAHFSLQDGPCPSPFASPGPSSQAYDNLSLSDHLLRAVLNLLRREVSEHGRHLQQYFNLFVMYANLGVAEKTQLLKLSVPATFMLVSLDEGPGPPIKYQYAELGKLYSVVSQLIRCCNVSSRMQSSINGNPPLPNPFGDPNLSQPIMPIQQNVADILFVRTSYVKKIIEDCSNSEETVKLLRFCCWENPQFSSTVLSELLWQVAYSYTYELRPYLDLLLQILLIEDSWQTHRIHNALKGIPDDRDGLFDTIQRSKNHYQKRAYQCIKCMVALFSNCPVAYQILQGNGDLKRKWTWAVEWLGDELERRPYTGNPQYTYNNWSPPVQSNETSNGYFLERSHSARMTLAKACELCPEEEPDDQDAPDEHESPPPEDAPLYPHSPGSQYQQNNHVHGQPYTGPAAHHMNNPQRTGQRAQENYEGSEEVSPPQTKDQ
Assay: USP9X enzyme activity assay, ubiquitin-rhodamine110 substrate
Details: read-out: USP9X IC50/UM; Table 8
EXPERIMENTAL READOUT: pIC50
The value called pIC50 is obtained by taking minus log10 of the concentration in mol/L.

Asked: Can you share its pIC50? I mean this compound: CN(C)CCOc1ccc(C(=O)NCc2cccc(C(=O)N[C@@H](CC(C)(C)C)C(=O)Nc3ccc4nccn4c3)c2)cc1 [Compound 20]
Given back: 7.20

Asked: Can you share its pIC50? I mean this compound: CN(C)CCOc1ccc(C(=O)NCc2cccc(C(=O)N[C@@H](CC(C)(C)C)C(=O)Nc3ccc(CCN(C)C)cc3)c2)cc1 [Compound 13]
Given back: 7.36

Asked: Can you share its pIC50? I mean this compound: CNC(=O)CCc1ccc(NC(=O)[C@H](CC(C)(C)C)NC(=O)c2cccc(CNC(C)=O)c2)cc1 [Compound 48]
Given back: 5.05

Asked: Can you share its pIC50? I mean this compound: CN(C)CCc1ccc(NC(=O)[C@H](CC(C)(C)C)NC(=O)c2cccc(CNC(=O)c3ccccc3)c2)cc1 [Compound 47]
Given back: 6.49

Asked: Can you share its pIC50? I mean this compound: CN(C)CCOc1ccc(C(=O)NCc2cccc(C(=O)N[C@@H](CC(C)(C)C)C(=O)Nc3ccc(CCc4ccccn4)cc3)c2)cc1 [Compound 7]
Given back: 6.23

Asked: Can you share its pIC50? I mean this compound: CC(C)(C)C[C@H](NC(=O)c1cccc(CN)c1)C(=O)Nc1ccc(CCNC(=O)CC(C)(C)CC(=O)NCCOc2ccc(C(=O)O)cc2)cc1 [Compound 72]
Given back: 4.54

Asked: Can you share its pIC50? I mean this compound: CN(C)CCOc1ccc(C(=O)NCc2cccc(C(=O)N[C@@H](CC(C)(C)C)C(=O)Nc3ccc(Cn4ccnc4)cc3)c2)cc1 [Compound 11]
Given back: 7.10

Asked: Can you share its pIC50? I mean this compound: CNC(=O)CCc1ccc(NC(=O)[C@H](CC(C)(C)C)NC(=O)c2cc(CNC(=O)c3ccc(OC)cc3)ccc2F)cc1 [Compound 43]
Given back: 6.12

Asked: Can you share its pIC50? I mean this compound: CNC(=O)CCc1ccc(NC(=O)[C@H](CC(C)(C)C)NC(=O)c2cc(CNC(C)=O)ccc2F)cc1 [Compound 49]
Given back: 5.30

Asked: Can you share its pIC50? I mean this compound: CN(C)CCOc1ccc(C(=O)NCc2cccc(C(=O)N[C@@H](CC(C)(C)C)C(=O)Nc3cccc(Cn4cccn4)c3)c2)cc1 [Compound 9]
Given back: 6.82

Asked: Can you share its pIC50? I mean this compound: CNCCOc1ccc(C(=O)NCc2cccc(C(=O)N[C@@H](CC(C)(C)C)C(=O)Nc3cccc(Cn4cccn4)c3)c2)cc1 [Compound 8]
Given back: 5.96

Asked: Can you share its pIC50? I mean this compound: CNCCOc1ccc(C(=O)NCc2cccc(C(=O)N[C@@H](CC(C)(C)C)C(=O)Nc3ccc(CCc4ccccn4)cc3)c2)cc1 [Compound 6]
Given back: 6.15

Asked: Can you share its pIC50? I mean this compound: CN(C)CCCNC(=O)[C@H](CC(C)(C)C)NC(=O)c1cccc(CNC(=O)c2ccc(OCCN(C)C)cc2)c1 [Compound 16]
Given back: 4.74

Asked: Can you share its pIC50? I mean this compound: COC(=O)c1cccc(NC(=O)[C@H](CC(C)(C)C)NC(=O)c2cccc(CNC(=O)c3ccc(OCCN(C)C)cc3)c2)c1 [Compound 25]
Given back: 7.17

Asked: Can you share its pIC50? I mean this compound: CC(=O)NCc1ccc(F)c(C(=O)N[C@@H](CC(C)(C)C)C(=O)Nc2ccc(CCC(=O)O)cc2)c1 [Compound 60]
Given back: 4.89

Asked: Can you share its pIC50? I mean this compound: CNCCOc1ccc(C(=O)NCc2cccc(C(=O)N[C@@H](CC(C)(C)C)C(=O)Nc3ccc(CN4CCCC4)cc3)c2)cc1 [Compound 4]
Given back: 7.27

Asked: Can you share its pIC50? I mean this compound: CC(C)(C)CC(=O)NCCc1ccc(NC(=O)[C@H](CC(C)(C)C)NC(=O)c2cccc(CNC(=O)c3ccc(OCCO)cc3)c2)cc1 [Compound 65]
Given back: 6.22

Asked: Can you share its pIC50? I mean this compound: COc1ccc(NC(=O)[C@H](CC(C)(C)C)NC(=O)c2cccc(CNC(=O)c3ccc(OCCN(C)C)cc3)c2)cc1 [Compound 23]
Given back: 6.62

Asked: Can you share its pIC50? I mean this compound: CNCCOc1ccc(C(=O)NCc2cccc(C(=O)N[C@@H](CC(C)(C)C)C(=O)Nc3ccc(CC(F)(F)F)cc3)c2)cc1 [Compound 12]
Given back: 5.89

Asked: Can you share its pIC50? I mean this compound: CNCCOc1ccc(C(=O)NCc2cccc(C(=O)N[C@@H](CC(C)C)C(=O)Nc3ccc(CCC(=O)O)cc3)c2)cc1 [Compound 31]
Given back: 5.22

Asked: Can you share its pIC50? I mean this compound: CNC(=O)CCc1ccc(NC(=O)[C@H](CC(C)(C)C)NC(=O)c2cc(CNC(=O)c3ccc(OCCN(C)C)cc3)ccc2F)cc1 [Compound 41]
Given back: 7.05

Asked: Can you share its pIC50? I mean this compound: CNC(=O)CCc1ccc(NC(=O)[C@H](CC(C)(C)C)NC(=O)c2cccc(CNC(=O)c3ccc(OC)cc3)c2)cc1 [Compound 42]
Given back: 5.89

Asked: Can you share its pIC50? I mean this compound: Cc1ccc(NC(=O)[C@H](CC(C)(C)C)NC(=O)c2cccc(CNC(=O)c3ccc(OCCO)cc3)c2)cc1 [Compound 62]
Given back: 5.16

Asked: Can you share its pIC50? I mean this compound: CC(C)(C)C[C@H](NC(=O)c1cccc(CNC(=O)c2ccc(OCCO)cc2)c1)C(=O)Nc1ccccc1 [Compound 61]
Given back: 5.24

Asked: Can you share its pIC50? I mean this compound: CNCCOc1ccc(C(=O)NCc2cccc(C(=O)N[C@@H](CC(C)(C)C)C(=O)Nc3ccc(CC(NC(=O)CC(C)(C)CC(=O)O)C(=O)OC)cc3)c2)cc1 (some centres unmarked) [Compound 1]
Given back: 6.28

Asked: Can you share its pIC50? I mean this compound: CC(C)(C)C[C@H](NC(=O)c1cccc(CNC(=O)c2ccc(OCCO)cc2)c1)C(=O)Nc1ccc(CCN)cc1 [Compound 63]
Given back: 6.66
